# Assay info: Oral bioavailability in Wistar Han rat at 3 umol/kg
# Format: ADME, organism-based
# Settings: in vivo
Measure: bioavailability
// unit must come after the numeric part

Worked cases, bioavailability given:
* COc1cc(N2CCN(C)CC2)ccc1Nc1nccc(-c2c[nH]c3c(C)nccc23)n1 | 0%
* COc1cc(N2CCN(C(C)=O)CC2)ccc1Nc1cc(-c2cn(C)c3cnccc23)ncn1 | 5%
* COc1cc(N2CCN(C)CC2)ccc1Nc1nccc(-c2cn(C)c3cnccc23)n1 | 22%
* Cn1cc(-c2ccnc(-c3ccc(S(C)(=O)=O)cc3)n2)c2ccncc21 | 37%
* Cc1nccc2c(-c3ccnc(-c4ccc(S(C)(=O)=O)cc4)n3)c[nH]c12 | 4%
* COc1cc(N2CCN(C)CC2)ccc1Nc1nccc(-c2cn(C)c3c(C)nccc23)n1 | 14%
* CN1CCN(c2ccc(Nc3cc(-c4c[nH]c5ccccc45)ncn3)cc2)CC1 | 13%

# evaluate next
Ask | State, in one line, measured bioavailability of "CS(=O)(=O)c1ccc(-c2nccc(-c3c[nH]c4cnccc34)n2)cc1"
Reply | 0%
